Test system: E. coli JM109
METHOD SUMMARY: Bacterial growth assay, E. coli JM109
Assay type: cell-based
CONDITION: data not shown
ENDPOINT NAME: Inhibitory effect on the growth of E. coli JM109

| MOL SMILES | DATA VALUE |
| --- | --- |
| O=C(O)CCN1C(=O)C(=C2C(=O)N(Cc3ccc(F)cc3)c3ccccc32)SC1=S | no inhibitory effects |
| O=C(O)CCCN1C(=O)C(=C2C(=O)N(Cc3ccc(Cl)cc3)c3ccccc32)SC1=S | no inhibitory effects |
| O=C(O)CN1C(=O)C(=C2C(=O)N(Cc3ccccc3Cl)c3ccccc32)SC1=S | no inhibitory effects |
